The reported measurements were obtained from the supplement of paper PMC7877785.

- EXPERIMENT: self-splicing fitness, log relative to wild type (ln ratio); higher = more splicing; Tetrahymena group I intron in knt gene, E. coli kanamycin selection, DiMSum; sequences stand for … in CUCUCU…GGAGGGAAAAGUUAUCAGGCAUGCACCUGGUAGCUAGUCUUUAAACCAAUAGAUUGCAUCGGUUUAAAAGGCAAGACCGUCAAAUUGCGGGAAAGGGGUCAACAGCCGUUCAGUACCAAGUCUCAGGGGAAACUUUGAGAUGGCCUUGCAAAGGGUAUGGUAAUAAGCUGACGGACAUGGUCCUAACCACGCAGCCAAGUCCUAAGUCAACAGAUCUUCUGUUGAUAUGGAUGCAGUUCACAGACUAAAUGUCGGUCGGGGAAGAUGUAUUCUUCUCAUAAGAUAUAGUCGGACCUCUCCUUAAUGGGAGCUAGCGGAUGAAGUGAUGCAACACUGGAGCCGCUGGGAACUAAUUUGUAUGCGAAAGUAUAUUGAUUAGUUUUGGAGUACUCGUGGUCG;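 further: selection with 25 µg/mL kanamycin versus none on LB agar overnight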
- TEST_CONDITIONS: 30 °C
Please provide measured self-splicing fitness (ln) for the entries that follow.
Respond numerically, and do not add a unit to the figure.

# self-splicing fitness (ln) (sequence: CGAUAGCAAUAUUACGCGAA ) is -2.95

Value of measured self-splicing fitness (ln) for the entry AGUCAGCAAUAUUACGCAGG : -2.85

Entry ACCGAGCAAUAUUACGGCAG — recorded self-splicing fitness (ln) = -4.4

Query CGUCAGCAAUAUUACGGAGC yields self-splicing fitness (ln) of -3.85

For UAGGAGCAAUAUUACGACCA the sequence record lists self-splicing fitness (ln) as -1.68

The value of self-splicing fitness (ln) measured for the sequence GAGGAGCAAUAUUACGGUCC turned out to be -2.95

The recorded self-splicing fitness (ln) for ACCCAGCAAUAUUACGCAGG is -3.07

Data point: CUUGAGCAAUAUUACGCGCU ; self-splicing fitness (ln) = -2.45

Record UAUCAGCAAUAUUACGUACA . Reported self-splicing fitness (ln): -0.141

For record GUACAGCAAUAUUACGUACG the listed self-splicing fitness (ln) is -4.18

Recorded self-splicing fitness (ln) (sequence AGUUAGCAAUAUUACGCUCU ): -1.37

# sequence GAGUAGCAAUAUUACGACCU ; its self-splicing fitness (ln) = 0.288

self-splicing fitness (ln) for GUCUAGCAAUAUUACGUGGU is -2.5

Query AAGAAGCAAUAUUACGCGAC yields self-splicing fitness (ln) of -3.25

The reported value for UAUCAGCAAUAUUACGAAUG in terms of self-splicing fitness (ln) is 0.00149

So, UCUUAGCAAUAUUACGUAAC ? Its self-splicing fitness (ln) was -3.34

====

- EXPERIMENT: self-splicing fitness, log relative to wild type (ln ratio); higher = more splicing; Tetrahymena group I intron in knt gene, E. coli kanamycin selection, DiMSum; sequences stand for … in CUCUCU…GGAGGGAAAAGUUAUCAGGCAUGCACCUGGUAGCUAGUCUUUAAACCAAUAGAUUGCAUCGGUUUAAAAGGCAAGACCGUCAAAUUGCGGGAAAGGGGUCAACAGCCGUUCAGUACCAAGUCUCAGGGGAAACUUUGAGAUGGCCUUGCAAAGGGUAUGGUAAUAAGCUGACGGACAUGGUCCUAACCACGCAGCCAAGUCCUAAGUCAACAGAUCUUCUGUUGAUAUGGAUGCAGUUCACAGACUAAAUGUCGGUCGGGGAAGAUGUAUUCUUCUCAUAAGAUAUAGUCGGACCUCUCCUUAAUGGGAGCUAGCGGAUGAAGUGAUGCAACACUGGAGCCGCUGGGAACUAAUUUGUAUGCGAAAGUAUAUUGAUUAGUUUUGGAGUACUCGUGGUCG
- TEST_CONDITIONS: 30 °C
Assign label 1 to entries whose self-splicing fitness (ln) meets or exceeds -2; assign label 0 to the rest.

INPUT: Textbook exercise: given the entry ACACAGCAAUAUUACGGGUG , state whether its self-splicing fitness (ln) is greater than or equal to -2.
OUTPUT: label 1

INPUT: Would you say UGUUAGCAAUAUUACGUGAU shows self-splicing fitness (ln) at minimum -2?
OUTPUT: label 1

INPUT: Could you tell me if the measured self-splicing fitness (ln) of CGUGAGCAAUAUUACGUCAG reaches -2 or more?
OUTPUT: label 1

INPUT: Hello, I need to know if UGCCAGCAAUAUUACGGUUC has measured self-splicing fitness (ln) not below -2. Thanks!
OUTPUT: label 0

INPUT: Given the entry UCUCAGCAAUAUUACGUGAG , answer whether its self-splicing fitness (ln) meets or surpasses -2.
OUTPUT: label 1

INPUT: Hello, I need to know if UGCUAGCAAUAUUACGGCAG has measured self-splicing fitness (ln) not below -2. Thanks!
OUTPUT: label 0

INPUT: Check this sequence for self-splicing fitness (ln) at or above -2: CAACAGCAAUAUUACGAAGC
OUTPUT: label 0

INPUT: For this sequence, is measured self-splicing fitness (ln) -2 or higher? CGAAAGCAAUAUUACGCAAG
OUTPUT: label 1

INPUT: Kindly determine if self-splicing fitness (ln) recorded for AAAAAGCAAUAUUACGGGCA is above or exactly -2.
OUTPUT: label 1

INPUT: Does self-splicing fitness (ln) meet or surpass -2 for AUGCAGCAAUAUUACGUACC ?
OUTPUT: label 1

INPUT: API: above_or_equal(metric=self-splicing fitness (ln), cutoff=-2) for item CGGAAGCAAUAUUACGCCCC
OUTPUT: label 1

INPUT: Can AGGAAGCAAUAUUACGGGUG be said to have self-splicing fitness (ln) at or above -2?
OUTPUT: label 0

INPUT: Kindly determine if self-splicing fitness (ln) recorded for GUUAAGCAAUAUUACGAUAA is above or exactly -2.
OUTPUT: label 1

INPUT: Hi, just wondering whether AGCAAGCAAUAUUACGUUCC shows self-splicing fitness (ln) of -2 or higher.
OUTPUT: label 1

INPUT: Check this sequence for self-splicing fitness (ln) at or above -2: ACAUAGCAAUAUUACGUGUG
OUTPUT: label 0

INPUT: For this sequence, is measured self-splicing fitness (ln) -2 or higher? CAAUAGCAAUAUUACGGAAA
OUTPUT: label 0

INPUT: Entry UUAAAGCAAUAUUACGCUGA : is its self-splicing fitness (ln) no less than -2?
OUTPUT: label 1

INPUT: Record AAGGAGCAAUAUUACGGUAG ; criterion: self-splicing fitness (ln) no lower than -2. Met?
OUTPUT: label 0

INPUT: Exam item: decide whether the reported self-splicing fitness (ln) for UCCGAGCAAUAUUACGUAGU is at least -2.
OUTPUT: label 0

INPUT: Is it the case that GAUGAGCAAUAUUACGCCAG has self-splicing fitness (ln) reaching or exceeding -2?
OUTPUT: label 0

INPUT: hey, is self-splicing fitness (ln) for this one >= -2? UGUCAGCAAUAUUACGUCGA
OUTPUT: label 1

INPUT: Confirm if self-splicing fitness (ln) reported for the sequence CUCCAGCAAUAUUACGGAGG is -2 or above.
OUTPUT: label 0

INPUT: In plain terms: is recorded self-splicing fitness (ln) at least -2 for CGGAAGCAAUAUUACGUUUU ?
OUTPUT: label 0

INPUT: self-splicing fitness (ln) >= -2 for GUUGAGCAAUAUUACGUGGA ?
OUTPUT: label 1

INPUT: // inclusive: self-splicing fitness (ln) at least -2? input: GCUAAGCAAUAUUACGAGUU
OUTPUT: label 1

INPUT: I'd appreciate it if you could say whether UCUAAGCAAUAUUACGGUGA has self-splicing fitness (ln) at least equal to -2.
OUTPUT: label 1

INPUT: Quick check, self-splicing fitness (ln) >= -2? GGAAAGCAAUAUUACGUGGA
OUTPUT: label 0

INPUT: Does the sequence CGCGAGCAAUAUUACGAGUG have recorded self-splicing fitness (ln) that is -2 or more?
OUTPUT: label 0

INPUT: Evaluate CAGCAGCAAUAUUACGAUCG : self-splicing fitness (ln) at minimum -2?
OUTPUT: label 1

INPUT: Tell me whether self-splicing fitness (ln) is at least -2 here: CACAAGCAAUAUUACGCCUG
OUTPUT: label 1

INPUT: Please tell me: is the sequence GCGAAGCAAUAUUACGACGA at or over -2 in terms of self-splicing fitness (ln)?
OUTPUT: label 1

INPUT: Can GAGCAGCAAUAUUACGAUCA be said to have self-splicing fitness (ln) at or above -2?
OUTPUT: label 0
